# system-name: Recombinant human IL-2 (human, UniProt P60568 21-153)
# protocol-notes: cell-based or functional assay
measured-parameter: pSTAT5a,b fold EC50 shift, Human Primary NK cells (huRβγ) (fold)

>>> value_measured("XPA.92.041 (antibody, V domains shown, Tested as purified full-length human IgG) VH: EVQLVQSGAEVKKPGESLKISCKGSGYNFDTYWIGWVRQMPGRGLEWMGTIYPADSDTRYSPSFQGQVTTSADKSISTAYLQWGSLRASDTAMYYCARFSSSAYDIWGQGTMVTVSS VL: SYELTQPPSVSVSPGQTARITCSGDALPRQFAYWYQQKPGQAPVLVIYKDTERPSGIPERFSGSSSGTTVTLTISGVQAEDEADYYCQSADSSGTYHVFGGGTQLTVLG")
35
